- METHOD SUMMARY: First-in-human Part 2 multiple ascending dose q.d. blood and urine PK
- Assay type: in vivo
- COND: human, blood, oral, 50 mg, 50 mg qd, Day 1, blood; Median (Min-Max); read-out: AUClast
ENDPOINT: AUC(0-t) (ng·h/mL)
Just the number in ng·h/mL, nothing appended.

Kindly note the recorded AUC(0-t) for `C=CC(=O)N(C)CCOc1c(N)ncnc1-c1cc(F)cc(NC(=O)c2ccc(C3CC3)cc2F)c1C` , which is 103

---

- METHOD SUMMARY: First-in-human Part 2 multiple ascending dose q.d. blood and urine PK
- Format: in vivo
- COND: human, blood, oral, 10 mg, 10 mg qd, Day 12, blood; Median (Min-Max)
ENDPOINT: Tmax (min)
Answer with a number only, understood to be in min.

Sample `C=CC(=O)N(C)CCOc1c(N)ncnc1-c1cc(F)cc(NC(=O)c2ccc(C3CC3)cc2F)c1C` ; Tmax observed: 37.5

---

- METHOD SUMMARY: First-in-human Part 2 multiple ascending dose q.d. blood and urine PK
- Format: in vivo
- COND: human, blood, oral, 600 mg, 600 mg qd, Day 12, blood; Median (Min-Max); read-out: Cmax
ENDPOINT: Cmax
Returns: string containing the number followed by the unit.

Given item `C=CC(=O)N(C)CCOc1c(N)ncnc1-c1cc(F)cc(NC(=O)c2ccc(C3CC3)cc2F)c1C` , the value recorded as its Cmax is 475 ng/mL

---

- METHOD SUMMARY: First-in-human Part 2 multiple ascending dose q.d. blood and urine PK
- Format: in vivo
- COND: human, blood, oral, 10 mg, 10 mg qd, Day 1, blood; Mean ± SD; read-out: AUC0-24
ENDPOINT: AUC(0-t) (ng·h/mL)
Return type: number; implicit unit ng·h/mL.

Entry under test: `C=CC(=O)N(C)CCOc1c(N)ncnc1-c1cc(F)cc(NC(=O)c2ccc(C3CC3)cc2F)c1C` . Its AUC(0-t) was 4.94

---

- METHOD SUMMARY: First-in-human Part 3 food effect PK, single 60 mg dose
- Format: in vivo
- COND: human, whole blood, oral, 60 mg, single dose 60 mg, FAST; Geomean; read-out: Tmax
ENDPOINT: Tmax

Documented Tmax of `C=CC(=O)N(C)CCOc1c(N)ncnc1-c1cc(F)cc(NC(=O)c2ccc(C3CC3)cc2F)c1C` : 57 min

---

- METHOD SUMMARY: First-in-human Part 2 multiple ascending dose q.d. blood and urine PK
- Type: in vivo
- COND: human, blood, oral, 25 mg, 25 mg qd, Day 1, blood; Median (Min-Max); read-out: AUC0-24
ENDPOINT: AUC(0-t) (ng·h/mL)
Report as a plain number; the unit ng·h/mL is understood.

Sample `C=CC(=O)N(C)CCOc1c(N)ncnc1-c1cc(F)cc(NC(=O)c2ccc(C3CC3)cc2F)c1C` ; AUC(0-t) observed: 46.6

---

- METHOD SUMMARY: First-in-human Part 2 multiple ascending dose q.d. blood and urine PK
- Type: in vivo
- COND: human, blood, oral, 50 mg, 50 mg qd, Day 1, blood; Mean ± SD; read-out: AUC0-24
ENDPOINT: AUC(0-t) (ng·h/mL)
Number in ng·h/mL, nothing else.

compound `C=CC(=O)N(C)CCOc1c(N)ncnc1-c1cc(F)cc(NC(=O)c2ccc(C3CC3)cc2F)c1C` , AUC(0-t) observed: 116

---

- METHOD SUMMARY: First-in-human Part 2 multiple ascending dose q.d. blood and urine PK
- Format: in vivo
- COND: human, blood, oral, 10 mg, 10 mg qd, Day 1, blood; Median (Min-Max)
ENDPOINT: Tmax (min)
Respond numerically; units are min and should not be typed.

The recorded Tmax for C=CC(=O)N(C)CCOc1c(N)ncnc1-c1cc(F)cc(NC(=O)c2ccc(C3CC3)cc2F)c1C [Compound of Formula (I)] is 31

---

- METHOD SUMMARY: First-in-human Part 2 multiple ascending dose q.d. blood and urine PK
- Type: in vivo
- COND: human, blood, oral, 50 mg, 50 mg qd, Day 1, blood; Mean ± SD; read-out: MRT
ENDPOINT: MRT (h)
Field format: number, assumed h, no unit text.

Recorded result, `C=CC(=O)N(C)CCOc1c(N)ncnc1-c1cc(F)cc(NC(=O)c2ccc(C3CC3)cc2F)c1C` , MRT: 2.53

---

- METHOD SUMMARY: First-in-human Part 2 multiple ascending dose q.d. blood and urine PK
- Format: in vivo
- COND: human, whole blood, oral, 25 mg, 25 mg qd, Day 12, blood; Median (Min-Max); read-out: AUC0-24
ENDPOINT: AUC(0-t) (ng·h/mL)
The figure you give is taken to be in ng·h/mL; do not add the unit.

AUC(0-t) measured on `C=CC(=O)N(C)CCOc1c(N)ncnc1-c1cc(F)cc(NC(=O)c2ccc(C3CC3)cc2F)c1C` = 101

---

- METHOD SUMMARY: First-in-human Part 2 multiple ascending dose q.d. blood and urine PK
- Assay type: in vivo
- COND: human, blood, oral, 25 mg, 25 mg qd, Day 12, blood; Median (Min-Max); read-out: Vss/F
ENDPOINT: Vd/F (L)
Could you give me the number in L? Just the number is fine.

Item: C=CC(=O)N(C)CCOc1c(N)ncnc1-c1cc(F)cc(NC(=O)c2ccc(C3CC3)cc2F)c1C [Compound of Formula (I)] | Vd/F: 334

---

- METHOD SUMMARY: First-in-human Part 2 multiple ascending dose q.d. blood and urine PK
- Assay type: in vivo
- COND: human, whole blood, oral, 10 mg, 10 mg qd, Day 12, blood; Mean ± SD; read-out: AUClast
ENDPOINT: AUC(0-t)

AUC(0-t) in this record for `C=CC(=O)N(C)CCOc1c(N)ncnc1-c1cc(F)cc(NC(=O)c2ccc(C3CC3)cc2F)c1C` : 22.9 ng·h/mL

---

- METHOD SUMMARY: First-in-human Part 2 multiple ascending dose q.d. blood and urine PK
- Assay type: in vivo
- COND: human, blood, oral, 50 mg, 50 mg qd, Day 12, blood; Median (Min-Max); read-out: Vss/F
ENDPOINT: Vd/F (L)
// note: answer is a bare numeric in L

What the record says about `C=CC(=O)N(C)CCOc1c(N)ncnc1-c1cc(F)cc(NC(=O)c2ccc(C3CC3)cc2F)c1C` : Vd/F is 346

---

- METHOD SUMMARY: First-in-human Part 2 multiple ascending dose q.d. blood and urine PK
- Assay type: in vivo
- COND: human, whole blood, oral, 400 mg, 400 mg qd, Day 12, blood; Median (Min-Max); read-out: AUClast
ENDPOINT: AUC(0-t) (ng·h/mL)
Report as a plain number; the unit ng·h/mL is understood.

The value of AUC(0-t) measured for the compound C=CC(=O)N(C)CCOc1c(N)ncnc1-c1cc(F)cc(NC(=O)c2ccc(C3CC3)cc2F)c1C [Compound of Formula (I)] turned out to be 1180

---

- METHOD SUMMARY: First-in-human Part 2 multiple ascending dose q.d. blood and urine PK
- Format: in vivo
- COND: human, whole blood, oral, 25 mg, 25 mg qd, Day 12, blood; Median (Min-Max); read-out: AUClast
ENDPOINT: AUC(0-t) (ng·h/mL)
Just the number please, in ng·h/mL, no unit attached.

Measured AUC(0-t), `C=CC(=O)N(C)CCOc1c(N)ncnc1-c1cc(F)cc(NC(=O)c2ccc(C3CC3)cc2F)c1C` : 98.2

---

- METHOD SUMMARY: First-in-human Part 3 food effect PK, single 60 mg dose
- Format: in vivo
- COND: human, whole blood, oral, 60 mg, single dose 60 mg, FED; Mean; read-out: AUClast
ENDPOINT: AUC(0-t) (ng·h/mL)
Numeric answer only, unit ng·h/mL assumed.

Sure, the documented AUC(0-t) for C=CC(=O)N(C)CCOc1c(N)ncnc1-c1cc(F)cc(NC(=O)c2ccc(C3CC3)cc2F)c1C [Compound of Formula (I)] is 252

---

- METHOD SUMMARY: First-in-human Part 2 multiple ascending dose q.d. blood and urine PK
- Format: in vivo
- COND: human, whole blood, oral, 100 mg, 100 mg qd, Day 12, blood; Mean ± SD
ENDPOINT: AUC(0-inf) (ng·h/mL)
Only the number, expressed in ng·h/mL, is required.

Noted for `C=CC(=O)N(C)CCOc1c(N)ncnc1-c1cc(F)cc(NC(=O)c2ccc(C3CC3)cc2F)c1C` : its AUC(0-inf) reads 577

---

- METHOD SUMMARY: First-in-human Part 2 multiple ascending dose q.d. blood and urine PK
- Assay type: in vivo
- COND: human, blood, oral, 25 mg, 25 mg qd, Day 1, blood; Median (Min-Max); read-out: AUClast
ENDPOINT: AUC(0-t) (ng·h/mL)
Unit ng·h/mL implied. Number only.

Short answer for C=CC(=O)N(C)CCOc1c(N)ncnc1-c1cc(F)cc(NC(=O)c2ccc(C3CC3)cc2F)c1C [Compound of Formula (I)] : AUC(0-t) was 45.5
